Data provenance is ChEMBL document CHEMBL1148879.

assay: Plasma clearance in mouse at 3 mg/kg, iv; type: ADME, organism-based; set-up: dose 3 mg/kg, route intravenous
List of clearance values.
MEASUREMENT_LABEL: clearance (mL/min/kg)

# SMILES_TEXT, MEASUREMENT_LABEL, VALUE_REPORTED
rows = [
    ("COc1cc2c(cc1C(=O)NCc1ccccn1)Cc1c(-c3ccc(-c4ccc(O)c(F)c4)cc3)n[nH]c1-2", "clearance", 60),
    ("COc1cc2c(cc1C(=O)N[C@H]1CC[C@H](O)CC1)Cc1c(-c3ccc(-c4ccc(O)cc4)cc3)n[nH]c1-2", "clearance", 183),
]

* * *

target: Serine/threonine-protein kinase Chk1 (Homo sapiens, UniProt O14757); test: Inhibition of recombinant CHK-mediated Cdc25C phosphorylation after 30 mins
Sequence (O14757 whole entry): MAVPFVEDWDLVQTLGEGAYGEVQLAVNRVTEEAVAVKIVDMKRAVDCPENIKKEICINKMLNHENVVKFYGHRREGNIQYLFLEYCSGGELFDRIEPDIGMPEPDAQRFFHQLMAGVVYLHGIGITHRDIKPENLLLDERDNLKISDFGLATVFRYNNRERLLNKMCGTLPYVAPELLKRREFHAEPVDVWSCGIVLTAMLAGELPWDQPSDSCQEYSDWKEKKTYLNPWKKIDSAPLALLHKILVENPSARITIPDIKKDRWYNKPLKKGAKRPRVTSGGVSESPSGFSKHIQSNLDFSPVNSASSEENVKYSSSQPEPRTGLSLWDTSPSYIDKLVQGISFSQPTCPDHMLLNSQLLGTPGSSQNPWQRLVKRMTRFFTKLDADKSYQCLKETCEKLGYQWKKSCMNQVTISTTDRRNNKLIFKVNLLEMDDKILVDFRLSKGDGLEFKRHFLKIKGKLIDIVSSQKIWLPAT
pIC50: −log10 of the molar value.
Binary call on pIC50: 1 from 9 upward, -1 beneath that.

# SMILES_TEXT, QUALITATIVE_LABEL
measured = [
    ("COc1cc2c(cc1CN1CCN(C)CC1)Cc1c(-c3ccc(-c4ccc(O)c(F)c4)cc3)n[nH]c1-2", -1),
    ("COc1cc2c(cc1CNCCN1CCCC1)Cc1c(-c3ccc(-c4ccc(O)cc4)cc3)n[nH]c1-2", 1),
    ("COc1cc2c(cc1CNCCO)Cc1c(-c3ccc(-c4ccc(O)cc4)cc3)n[nH]c1-2", 1),
]

* * *

target: Serine/threonine-protein kinase Chk1 (Homo sapiens, UniProt O14757); experiment: Inhibition of recombinant CHK-mediated Cdc25C phosphorylation after 30 mins
pIC50: −log10 of the molar value.
Binary call on pIC50: Satisfied from 8 upward, Not satisfied beneath that.

# SMILES_TEXT, QUALITATIVE_LABEL
records = [
    ("O=C(NCc1ccccc1)c1cccc2c1Cc1c(-c3ccc(-c4ccc(O)cc4)cc3)n[nH]c1-2", "Not satisfied"),
    ("CC(C)(C)CNCc1cccc2c1Cc1c(-c3ccc(-c4ccc(O)cc4)cc3)n[nH]c1-2", "Not satisfied"),
    ("CN1CCN(Cc2ccc3c(c2)Cc2c(-c4ccc(-c5ccc(O)cc5)cc4)n[nH]c2-3)CC1", "Not satisfied"),
    ("COc1cc2c(cc1C(=O)N1CCOCC1)Cc1c(-c3ccc(-c4ccc(O)cc4)cc3)n[nH]c1-2", "Satisfied"),
    ("CCCCNCC(=O)Nc1ccc2c(c1)Cc1c(-c3ccc(-c4ccc(O)cc4)cc3)n[nH]c1-2", "Satisfied"),
    ("CC(=O)Nc1cccc2c1Cc1c(-c3ccc(-c4ccc(O)cc4)cc3)n[nH]c1-2", "Satisfied"),
    ("CN(C)CCNCc1ccc2c(c1)-c1[nH]nc(-c3ccc(-c4ccc(O)cc4)cc3)c1C2", "Satisfied"),
    ("O=C(c1ccc2c(c1)-c1[nH]nc(-c3ccc(-c4ccc(O)cc4)cc3)c1C2)N1CCOCC1", "Not satisfied"),
    ("OCc1ccc2c(c1)-c1[nH]nc(-c3ccc(-c4ccc(O)cc4)cc3)c1C2", "Satisfied"),
    ("Oc1ccc(-c2ccc(-c3n[nH]c4c3Cc3ccccc3-4)cc2)cc1", "Not satisfied"),
    ("O=C(CN[C@H]1CC[C@H](O)CC1)Nc1ccc2c(c1)Cc1c(-c3ccc(-c4ccc(O)cc4)cc3)n[nH]c1-2", "Satisfied"),
    ("O=C(NCCO)c1ccc2c(c1)-c1[nH]nc(-c3ccc(-c4ccc(O)cc4)cc3)c1C2", "Satisfied"),
    ("COc1cc2c(cc1CN1CCC(O)CC1)Cc1c(-c3ccc(-c4ccc(O)cc4)cc3)n[nH]c1-2", "Satisfied"),
    ("COc1cc2c(cc1C(=O)N1CCN(C)CC1)Cc1c(-c3ccc(-c4ccc(O)cc4)cc3)n[nH]c1-2", "Satisfied"),
    ("CNC(=O)c1ccc2c(c1)-c1[nH]nc(-c3ccc(-c4ccc(O)cc4)cc3)c1C2", "Satisfied"),
]
